FYI, the data here is from patent US20050288347A1.

- Tested on: protein kinase
- test_method_notes: HTS ATP-utilizing enzyme assay, off-chip mobility-shift format (Caliper HTS 250)
- Type: biochemical, human
- test_conditions: test compound 10 μM; active = activity greater than three-sigma from the mean of the predominately inactive population for that enzyme
measure: protein kinase against which the compound exhibits inhibitory activity (Table 3)

Qu. Short answer please: protein kinase against which the compound exhibits inhibitory activity (Table 3), protein kinase, entry `COCCNC(=O)CSc1nnc(-c2ccccc2O)n1-c1ccccc1OC`
Ans. KIT

Qu. Short answer please: protein kinase against which the compound exhibits inhibitory activity (Table 3), protein kinase, entry `CNC(=O)CSc1nnc(-c2ccccc2O)n1-c1ccccc1OC`
Ans. AURORA-A

Qu. Short answer please: protein kinase against which the compound exhibits inhibitory activity (Table 3), protein kinase, entry `Cn1c(SCc2ccccc2)nnc1-c1ccncc1`
Ans. AURORA-A

Qu. Short answer please: protein kinase against which the compound exhibits inhibitory activity (Table 3), protein kinase, entry `COc1ccccc1-n1c(SCCC(=O)O)nnc1-c1cccnc1`
Ans. AURORA-A

====

- experimental_system: protein kinase
- test_method_notes: HTS ATP-utilizing enzyme assay, off-chip mobility-shift format (Caliper HTS 250)
- Format: biochemical, human
- test_conditions: kinase(s) for which the compound exhibits protein kinase inhibitory activity; test compound 10 μM; active = greater than three-sigma from the mean activity of inactive compounds
measure: Kinase

In the examples that follow, each entry is paired with its recorded Kinase.
Qu. Field request: Kinase | item: `Cc1ccc(S(=O)(=O)Nc2ccc(-c3nnc(SCC(=O)N4CCCCC4)n3C)cc2)cc1`
Ans. AKT1

Qu. Field request: Kinase | item: `CCn1c(CNc2cccc(Cl)c2)nnc1SCC(=O)Nc1ccccc1C(=O)OC`
Ans. AURORA-A

Qu. Field request: Kinase | item: `CCn1c(COc2cccc3ccccc23)nnc1SCC#N`
Ans. AURORA-A

Qu. Field request: Kinase | item: `Cn1c(CNc2nc(-c3ccccc3)cs2)nnc1SCC(N)=O`
Ans. FYN

Qu. Field request: Kinase | item: CC(Sc1nnc(COc2ccccc2)n1-c1ccccc1)C(=O)O (centres unmarked)
Ans. FYN

More entries:
Qu. Field request: Kinase | item: `C=CCNC(=O)CSc1nnc(-c2ccccc2O)n1-c1ccc(C)cc1`
Ans. AURORA-A

Qu. Field request: Kinase | item: `O=C(CSc1nnc(-c2ccccc2O)n1CCc1ccccc1)Nc1nnc(C(F)(F)F)s1`
Ans. AURORA-A

Qu. Field request: Kinase | item: `COc1ccc(-c2nnc(SCC(=O)O)n2-c2ccccc2)cc1OC`
Ans. FYN

====

- experimental_system: protein kinase
- test_method_notes: HTS ATP-utilizing enzyme assay, off-chip mobility-shift format (Caliper HTS 250)
- Assay type: biochemical, human
- test_conditions: kinase(s) for which the compound exhibits protein kinase inhibitory activity; test compound 10 μM; active = greater than three-sigma from the mean activity of inactive compounds
- Text: The following procedures describe the reagent and plate preparation for a HTS of an ATP-utilizing enzyme, such as a protein kinase, run in an off-chip mobility-shift assay format. The following provides an HTS protocol for running a protein kinase HTS screen on a Caliper HTS 250 microfluidics system. The following parameters are dependent on the protein kinase used and can be determined by one skilled in the art as part of a typical assay development process. […]
measure: Kinase

In the examples that follow, each entry is paired with its recorded Kinase.
Qu. Field request: Kinase | item: Cc1ccc(-n2c(COc3cccc4ccccc34)nnc2SC(C)C(=O)O)cc1 (centres unmarked)
Ans. AKT1

Qu. Field request: Kinase | item: CC(Sc1nnc(CNc2ccc(Cl)cc2)n1Cc1ccccc1)C(=O)O (centres unmarked)
Ans. DAPK1

Qu. Field request: Kinase | item: Cc1ccc(-n2c(SC(C)C(=O)O)nnc2-c2cccnc2)cc1 (centres unmarked)
Ans. AURORA-A

Qu. Field request: Kinase | item: `CCc1ccccc1NC(=O)CSc1nnc(COc2ccc(Cl)cc2)n1C`
Ans. PDGFRR-α

Qu. Field request: Kinase | item: `CCc1ccc(OCc2nnc(S)n2Cc2ccccc2)cc1`
Ans. AKT1

Qu. Field request: Kinase | item: `CCOC(=O)CSc1nnc(CNc2cc(Cl)ccc2Cl)n1CC`
Ans. DYRK2

Qu. Field request: Kinase | item: `CCn1c(SCC(=O)Nc2ccccc2)nnc1-c1ccc(O)cc1`
Ans. CHEK2

Qu. Field request: Kinase | item: O=C(CSc1nnc(CNc2ccc(F)cc2)n1CC1CCCO1)N1CCCc2ccccc21 (centres unmarked)
Ans. AKT1

More entries:
Qu. Field request: Kinase | item: `CCc1cccc(C)c1NC(=O)CSc1nnc(CNc2ccc(Cl)cc2)n1CC`
Ans. LCK

Qu. Field request: Kinase | item: `Cc1cccc(C)c1NCc1nnc(SCC(=O)Nc2ccccc2-c2ccccc2)n1C`
Ans. LCK

Qu. Field request: Kinase | item: `COc1ccc(C)cc1NC(=O)CSc1nnc(-c2ccc(Br)cc2)n1-c1ccccc1`
Ans. SYK

Qu. Field request: Kinase | item: `Cn1c(COc2ccc(Br)cc2)nnc1SCC(=O)O`
Ans. AURORA-A

Qu. Field request: Kinase | item: CCn1c(COc2cccc3ccccc23)nnc1SCC(=O)NCC1CCCO1 (centres unmarked)
Ans. FYN

Qu. Field request: Kinase | item: `CCOc1ccc(NCc2nnc(SCC#N)n2-c2ccc(C)cc2)cc1`
Ans. FYN

Qu. Field request: Kinase | item: `CCOc1ccc(NC(=O)CSc2nnc(-c3ccc(O)cc3)n2-c2ccccc2)cc1`
Ans. HCK

Qu. Field request: Kinase | item: `CCn1c(CNc2cccc(Cl)c2)nnc1SCC(=O)Nc1ccc(C(C)=O)cc1`
Ans. CDK1

Qu. Field request: Kinase | item: `Cc1ccc(NCc2nnc(SCC(N)=O)n2Cc2ccco2)c(C)c1`
Ans. PDGFRR-α

Qu. Field request: Kinase | item: `COCCn1c(S)nnc1-c1cc2ccccc2cc1O`
Ans. AURORA-A

Qu. Field request: Kinase | item: `COc1ccc(-n2c(SCC(=O)N3CCC(C)CC3)nnc2-c2ccccc2)cc1`
Ans. DAPK1

Qu. Field request: Kinase | item: `O=C(CSc1nnc[nH]1)N1c2ccccc2Sc2ccccc21`
Ans. LCK

Qu. Field request: Kinase | item: `O=C(CSc1nnc(-c2cccnc2)n1Cc1ccccc1)CC(=O)Nc1ccccc1`
Ans. AURORA-A
